Biological target: UniProtKB P14416
Sequence (P14416 whole entry): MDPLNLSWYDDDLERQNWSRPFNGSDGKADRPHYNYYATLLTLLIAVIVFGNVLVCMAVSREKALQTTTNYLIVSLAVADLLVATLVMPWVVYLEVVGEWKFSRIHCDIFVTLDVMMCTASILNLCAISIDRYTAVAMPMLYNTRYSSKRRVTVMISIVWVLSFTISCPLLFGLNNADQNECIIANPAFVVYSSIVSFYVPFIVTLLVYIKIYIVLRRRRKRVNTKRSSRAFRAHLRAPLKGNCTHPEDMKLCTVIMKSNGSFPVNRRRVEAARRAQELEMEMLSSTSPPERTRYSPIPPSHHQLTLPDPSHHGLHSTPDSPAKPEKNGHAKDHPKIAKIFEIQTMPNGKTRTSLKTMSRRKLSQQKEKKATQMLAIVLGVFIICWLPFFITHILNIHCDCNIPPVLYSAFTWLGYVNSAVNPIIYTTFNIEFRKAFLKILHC
Test: Displacement of [3H]Spiperone from human dopamine D2 long receptor expressed in CHO cells
Type: cell-based
pKi: −log10 of the molar value.
Quantity Measured: pKi

Examples with their reported pKi follow.
> print(dat)
                               given.smiles  obs.value
1  O=C(CCCN1CCN(c2ccc(Cl)cc2)CC1)c1ccc(F)cc1       7.20
2  O=C(NCCCCN1CCN(c2cc3ccc2CCc2ccc(cc2)CC3)CC1)c1cc2ccc1CCc1ccc(cc1)CC2       7.49
3  Cc1ccc(C)c(C(=O)NCCCCN2CCN(c3cc(C)ccc3C)CC2)c1       7.00
4  O=C(NCCCCN1CCN(c2cc3ccc2CCc2ccc(cc2)CC3)CC1)c1cc2ccccc2s1       7.08
5  COc1ccccc1N1CCN(CCCCNC(=O)c2cc3ccc2CCc2ccc(cc2)CC3)CC1       7.62

(P) O=C(CCCN1CCN(c2cc3ccc2CCc2ccc(cc2)CC3)CC1)c1ccc(F)cc1
(Q) O=C(CCCN1CCN(c2ccc(Cl)cc2)CC1)c1cc2ccc1CCc1ccc(cc1)CC2
Looking at P and Q , which one comes out lower in pKi terms? State your choice using its label. Q
